B1: library; numbered along this chain (parent)
chain: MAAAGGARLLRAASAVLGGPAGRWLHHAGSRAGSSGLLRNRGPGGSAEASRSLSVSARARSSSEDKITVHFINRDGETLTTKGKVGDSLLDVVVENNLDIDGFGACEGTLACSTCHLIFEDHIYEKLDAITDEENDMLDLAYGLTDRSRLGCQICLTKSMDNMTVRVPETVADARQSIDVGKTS

- Variants of: B1
- Experiment: scaled log2 fold change in cell abundance, elesclomol vs control (0 = silent mean, 1 = nonsense mean) (scaled log2 ratio); higher = higher viability under elesclomol (loss of FDX1 cuproptosis function);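 also: variant abundance is its share of total variant reads in each endpoint sample, from next-generation sequencing of the integrated ORF PCR-amplified out of genomic DNA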
- Condition label: with ABC1 FDX1 KO; elesclomol 5 nM; glucose 10 mM; 14 days
Assay readout: scaled log2 fold change

Solved entries (count: 5):
{"Mut": "I118R", "scaled log2 fold change": -0.527}
{"Mut": "L110T", "scaled log2 fold change": 0.401}
{"Mut": "K82W", "scaled log2 fold change": 0.0928}
{"Mut": "C106A", "scaled log2 fold change": 1.03}
{"Mut": "Q153D", "scaled log2 fold change": 0.674}

Name the recorded scaled log2 fold change for `A174L` .
0.255
